Cited source: patent US20160319277A1

# Test system: HEK-CMV-Luc2-Hygro cells
# Protocol Notes: High-throughput genome-wide siRNA screen and validation screen for luciferase expression
# Assay type: cell-based, human
# Condition Parameters: Table 4; primary screen, 72 h, negative control = 100%
Readout Kind: per cell luciferase yield (%)

- Substance: "133 (GAACUUCAAUGGAAAACAUTT; chemistry not given here; listed as Homo sapiens) [compound 133]"
  Readout Kind: "per cell luciferase yield (%)"
  Experimental Value: "250.367%"
- Substance: "147 (GUUUCGACCUCGAUCCAGATT; chemistry not given here; listed as Homo sapiens) [compound 147]"
  Readout Kind: "per cell luciferase yield (%)"
  Experimental Value: "256.085%"
- Substance: "179 (GUACCUGCGGGAUUACUCATT; chemistry not given here; listed as Homo sapiens) [compound 179]"
  Readout Kind: "per cell luciferase yield (%)"
  Experimental Value: "160.687%"
- Substance: "148 (CAGCCUCACCAAGCACAAATT; chemistry not given here; listed as Homo sapiens) [compound 148]"
  Readout Kind: "per cell luciferase yield (%)"
  Experimental Value: "167.413%"
- Substance: "110 (CAAUGAUUCUUACCCUCAATT; chemistry not given here; listed as Homo sapiens) [compound 110]"
  Readout Kind: "per cell luciferase yield (%)"
  Experimental Value: "257.929%"
- Substance: "156 (GAUUAUCCUUGUACUUUGATT; chemistry not given here; listed as Homo sapiens) [compound 156]"
  Readout Kind: "per cell luciferase yield (%)"
  Experimental Value: "141.842%"

---

# Tested on: HEK-CMV-Luc2-Hygro cells
# Protocol Notes: High-throughput genome-wide siRNA screen and validation screen for luciferase expression
# Type: cell-based, human
# Condition Parameters: Table 3; viable cell density as % of negative control, primary screen, 72 h
Below, each entry is listed with its recorded VIA.

- Substance: "51 (CCAGCGAUACAACUCCUAUTT; chemistry not given here; listed as Homo sapiens) [compound 51]"
  Measurement Target: "HEK-CMV-Luc2-Hygro cells"
  VIA: 83.64
- Substance: "89 (GGAUCACGCAGCUCAAGAUTT; chemistry not given here; listed as Homo sapiens) [compound 89]"
  Measurement Target: "HEK-CMV-Luc2-Hygro cells"
  VIA: 91.54
- Substance: "40 (CGAUGUUCGUGGACAUUCUTT; chemistry not given here; listed as Homo sapiens) [compound 40]"
  Measurement Target: "HEK-CMV-Luc2-Hygro cells"
  VIA: 80.01
- Substance: "88 (GAGCAGAGAUCAUAACCAATT; chemistry not given here; listed as Homo sapiens) [compound 88]"
  Measurement Target: "HEK-CMV-Luc2-Hygro cells"
  VIA: 108.2
- Substance: "54 (GCAUCUGUCCGAUCGCUCUTT; chemistry not given here; listed as Homo sapiens) [compound 54]"
  Measurement Target: "HEK-CMV-Luc2-Hygro cells"
  VIA: 105.5
- Substance: "81 (GUUUCAUCUGGGUUCGCUATT; chemistry not given here; listed as Homo sapiens) [compound 81]"
  Measurement Target: "HEK-CMV-Luc2-Hygro cells"
  VIA: 62.66
- Substance: "60 (GGCGAAUGCUCCUGACUAATT; chemistry not given here; listed as Homo sapiens) [compound 60]"
  Measurement Target: "HEK-CMV-Luc2-Hygro cells"
  VIA: 103.9
- Substance: "70 (GAUUAUCCUUGUACUUUGATT; chemistry not given here; listed as Homo sapiens) [compound 70]"
  Measurement Target: "HEK-CMV-Luc2-Hygro cells"
  VIA: 101.9
- Substance: "38 (GCAGUGGACAUAGAAGAGATT; chemistry not given here; listed as Homo sapiens) [compound 38]"
  Measurement Target: "HEK-CMV-Luc2-Hygro cells"
  VIA: 110.8
- Substance: "77 (CAAUGGAACAAUCAAAGUUTT; chemistry not given here; listed as Homo sapiens) [compound 77]"
  Measurement Target: "HEK-CMV-Luc2-Hygro cells"
  VIA: 89.61
- Substance: "53 (GAACAAAAUAGACCUCUUATT; chemistry not given here; listed as Homo sapiens) [compound 53]"
  Measurement Target: "HEK-CMV-Luc2-Hygro cells"
  VIA: 101.9
- Substance: "39 (CGCUUUAACUGGAAGCUCUTT; chemistry not given here; listed as Homo sapiens) [compound 39]"
  Measurement Target: "HEK-CMV-Luc2-Hygro cells"
  VIA: 103.7
- Substance: "49 (CGAAACUUGUCAACGGGAATT; chemistry not given here; listed as Homo sapiens) [compound 49]"
  Measurement Target: "HEK-CMV-Luc2-Hygro cells"
  VIA: 104.6
- Substance: "64 (GAUCGUUUGAGAGAACAAATT; chemistry not given here; listed as Homo sapiens) [compound 64]"
  Measurement Target: "HEK-CMV-Luc2-Hygro cells"
  VIA: 77.11
- Substance: "62 (AGGUCAAUGUGACUUUCCATT; chemistry not given here; listed as Homo sapiens) [compound 62]"
  Measurement Target: "HEK-CMV-Luc2-Hygro cells"
  VIA: 105
- Substance: "63 (CCUGGACAGUUUGAAGCAATT; chemistry not given here; listed as Homo sapiens) [compound 63]"
  Measurement Target: "HEK-CMV-Luc2-Hygro cells"
  VIA: 88.01
- Substance: "68 (CAGGUAGUGUAAGCCCUCATT; chemistry not given here; listed as Homo sapiens) [compound 68]"
  Measurement Target: "HEK-CMV-Luc2-Hygro cells"
  VIA: 66.87
- Substance: "58 (ACAGGUCUUUAUCAAAGCATT; chemistry not given here; listed as Homo sapiens) [compound 58]"
  Measurement Target: "HEK-CMV-Luc2-Hygro cells"
  VIA: 100.2
- Substance: "55 (CAACGGGACUAUUAUGAUATT; chemistry not given here; listed as Homo sapiens) [compound 55]"
  Measurement Target: "HEK-CMV-Luc2-Hygro cells"
  VIA: 89.58
- Substance: "67 (GGAUGACGAGCUGAACUUUTT; chemistry not given here; listed as Homo sapiens) [compound 67]"
  Measurement Target: "HEK-CMV-Luc2-Hygro cells"
  VIA: 113.4
- Substance: "61 (GGACGGAAGCGAAAAUCGATT; chemistry not given here; listed as Homo sapiens) [compound 61]"
  Measurement Target: "HEK-CMV-Luc2-Hygro cells"
  VIA: 71.47
- Substance: "43 (GCUAAGUCUUUUCCACAGUTT; chemistry not given here; listed as Homo sapiens) [compound 43]"
  Measurement Target: "HEK-CMV-Luc2-Hygro cells"
  VIA: 94.54
- Substance: "73 (GUCCGAGUGUGGUUCUGUATT; chemistry not given here; listed as Homo sapiens) [compound 73]"
  Measurement Target: "HEK-CMV-Luc2-Hygro cells"
  VIA: 85.82
- Substance: "86 (CAUUGGUUUUGAUGAGUAUTT; chemistry not given here; listed as Homo sapiens) [compound 86]"
  Measurement Target: "HEK-CMV-Luc2-Hygro cells"
  VIA: 64.38
- Substance: "93 (CAGCCUCACCAAGCACAAATT; chemistry not given here; listed as Homo sapiens) [compound 93]"
  Measurement Target: "HEK-CMV-Luc2-Hygro cells"
  VIA: 85.87
- Substance: "41 (CAACAGUACUUACCGAUGUTT; chemistry not given here; listed as Homo sapiens) [compound 41]"
  Measurement Target: "HEK-CMV-Luc2-Hygro cells"
  VIA: 115.5
- Substance: "74 (CUUCGACAGUACUUCCGGATT; chemistry not given here; listed as Homo sapiens) [compound 74]"
  Measurement Target: "HEK-CMV-Luc2-Hygro cells"
  VIA: 104
